Below, each of the molecules is paired with its reported melting point value.

{"columns": ["GIVEN SMILES", "melting point"],
 "data": [
  ["CCSc1nnn[nH]1", "88 to 89 °C"],
  ["CCOC(=O)c1c(C)cc(=O)oc1C", "17 to 18 °C"],
  ["CCOC(C)=C(C#N)C#N", "89 to 93 °C"],
  ["C/C(CCc1oc2ccccc2c1-c1ccc(C)o1)=N/O", "104 to 105 °C"],
  ["Cc1cccc(CO)c1[N+](=O)[O-]", "42 to 48 °C"],
  ["CC(=O)CCn1cc([N+](=O)[O-])nc1C", "98 to 100 °C"]
]}
